Target: T1, Recombinant human TSLP-his (human, UniProt Q969D9 29-159)
T1 construct: Prepared in-house; Amine-coupled to CM5 chip in SPR, loaded on APS sensors in Octet, biotin-labeled in the capture ELISA, unlabeled in the cell functional assays; also called human TSLP-his protein
Assay: SPR, Biacore T200; TSLP-his amine-coupled to CM5 chip, antibody as analyte; 1:1 Langmuir fit
Entries and their koff values follow.

Solved cases below.
[[record]]
binder = "1G3B9B1 (antibody, V domains shown, Mouse hybridoma mAb) VH: QVQLQQPGTELVKPGASVKMSCKASGYTFTTYWMHWVKQRPGQGLEWIGVIDPSDSDTTYNQKFKGKATLTVDTSSSTAYMQLSSLTSEDSAVYYCTRSLDGYYDYWGQGTTLTVSS VL: DIQMTQSPASLSASVGETVTITCRPTENIYSYLAWYQQKQGKSPHLLVYFARTLAEGVPSRFSGSGSGTQFSLKINSLQPEDFGIYYCQHHYGTPWTFGGGTKLEIK"
experimental_result = "< 1e-05 s⁻¹"

[[record]]
binder = "1G2H12A1 (antibody, V domains shown, Mouse hybridoma mAb) VH: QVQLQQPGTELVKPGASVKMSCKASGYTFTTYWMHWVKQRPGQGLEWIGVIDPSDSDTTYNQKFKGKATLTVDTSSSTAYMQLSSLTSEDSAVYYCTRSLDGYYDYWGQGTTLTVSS VL: DIQMTQSPASLSASVGETVTITCRPTENIYSYLAWYQQKQGKSPHLLVYFARTLAEGVPSRFSGSGSGTQFSLKINSLQPEDFGIYYCQHHYGTPWTFGGGTKLEIK"
experimental_result = "< 1e-05 s⁻¹"

[[record]]
binder = "Mouse D1D8H9F7 (antibody, V domains shown, Mouse hybridoma mAb) VH: QVQLQQSGADLVRPGSSVKISCKTSGFAFSSYYMNWVKQRPGQGLEWIGQIYPGDGETNYNGKFKDKATLTADKSSSTVYMQLSSLTSEDSAVYFCARAGYSDYVYAMDYWGQGTSVTVSS VL: EIVLTQSPALMAASPGEKVTIICSVSSSITSSNLHWYQQKSETSPKPWIYGTSNLASGVPVRFSGSGSGTSYSLTISSMEAEDAATYYCQQWSSFPLTFGSGTKLEIK"
experimental_result = "3.09e-05 s⁻¹"


With those in mind, consider the next binder.
Field koff (entry 1H3F11B7 (antibody, V domains shown, Mouse hybridoma mAb) VH: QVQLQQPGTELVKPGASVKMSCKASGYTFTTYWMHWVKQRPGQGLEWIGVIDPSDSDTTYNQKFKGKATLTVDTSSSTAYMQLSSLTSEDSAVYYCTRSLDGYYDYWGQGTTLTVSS VL: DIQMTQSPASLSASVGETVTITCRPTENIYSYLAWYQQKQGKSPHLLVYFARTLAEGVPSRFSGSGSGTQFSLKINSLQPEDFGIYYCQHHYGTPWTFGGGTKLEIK ) reads < 1e-05 s⁻¹
